All values here come from patent EP4786492A1.

Quick reference: MFI of the listed items.
- target.of.assay: human DLL3 endogenously expressed on SHP77 and NCI-H82 cells (human) (UniProt Q9NYJ7)
- Sequence (Q9NYJ7 27-618): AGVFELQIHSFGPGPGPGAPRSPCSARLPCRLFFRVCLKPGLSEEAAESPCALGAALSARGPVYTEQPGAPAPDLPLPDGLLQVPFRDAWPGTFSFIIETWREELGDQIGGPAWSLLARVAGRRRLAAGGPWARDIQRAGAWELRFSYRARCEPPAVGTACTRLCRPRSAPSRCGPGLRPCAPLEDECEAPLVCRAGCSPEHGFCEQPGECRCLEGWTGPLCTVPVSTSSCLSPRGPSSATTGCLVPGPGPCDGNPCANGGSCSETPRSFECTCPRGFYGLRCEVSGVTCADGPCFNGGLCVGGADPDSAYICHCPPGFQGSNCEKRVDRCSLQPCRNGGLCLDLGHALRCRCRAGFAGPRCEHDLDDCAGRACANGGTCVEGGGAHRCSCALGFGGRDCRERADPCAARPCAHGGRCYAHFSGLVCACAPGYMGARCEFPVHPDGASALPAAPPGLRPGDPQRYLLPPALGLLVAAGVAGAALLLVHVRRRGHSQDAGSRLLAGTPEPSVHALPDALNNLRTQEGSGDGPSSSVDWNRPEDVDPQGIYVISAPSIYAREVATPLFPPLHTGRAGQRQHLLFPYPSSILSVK
- measurement.notes: FACS SHP77 cells, 0.16 nM
Use MFI as the unit, but write only the number.

q: Look up MFI: mab012 scFv-hFc (Fc fusion, not shown: small tags and cut ends; a dimerising Fc or GST) scFv (part 1 of 2): DVLMTQTPLSLPVSLGDQASISCRSSQSIVHSDGNTYLEWYLQKPGQSPKLLIYKVSNRFSGVPDRFSGSGSGTDFTLKISRVEAEDLGFYYCFQGSHVPFTFGSGTKLEIK scFv (part 2 of 2): QVQLQQSGPELVKPGASVKISCKASGYTFTDYYIHWVKQRPGQGLEWIGWTLPGSGSPYYNEKFKGKATLTVDKSSSTAYMLLSSLTSEDSAVYFCARWHYYYGSSYHFDYWGQGTTLTVSS
a: 110
